Attribute: TGI
- System: HCT-116 colon
- Assay Name: NCI tumour cell line growth inhibition, 48 h

Known results for molecules:
COc1cc(C2C3=C(COC3=O)Nc3cc4c(cc32)OCO4)cc2c1OCO2 (configuration not stated) | 3.49 µM
CN(C)/C=C/c1c2c(nc3ccccc13)C(=O)c1ccccc1C2=O | 3.26 µM
Cc1cc(O)cc(C)c1/C=C/c1cncc(C(=O)OC(C)(C)C)c1 | > 25 µM

query: Hello, please tell me recorded TGI for this one: `N=C(N)SCc1ccc([N+](=O)[O-])cc1[N+](=O)[O-]`
result: 13.6 µM

query: Hello, please tell me recorded TGI for this one: `COc1ccc(-c2nc3c(nc2-c2ccc(OC)cc2)N(C)S(=O)(=O)N=C3N)cc1`
result: 30.7 µM

query: Hello, please tell me recorded TGI for this one: O=C1CSC(C(N=Nc2ccc(Cl)cc2)c2nc3ccccc3[nH]2)=N1 (configuration not stated)
result: > 100 µM

query: Hello, please tell me recorded TGI for this one: `Cc1ccc(S(=O)(=O)N2CCCSCCN(S(=O)(=O)c3ccc(C)cc3)CCCSCC2)cc1`
result: > 100 µM

query: Hello, please tell me recorded TGI for this one: `COc1ccc(N(C(=O)NCCO)c2ccccc2)cc1`
result: > 100 µM

query: Hello, please tell me recorded TGI for this one: `Cc1nnc([C@@]2(C)CC[C@H]3[C@@H](CCC4=CC(=O)CC[C@@]43C)[C@@H]2CC#N)o1`
result: > 100 µM

query: Hello, please tell me recorded TGI for this one: `Cc1[nH]c(=O)nc(N(CCO)/N=C/c2ccc(Cl)cc2)c1C(=O)Nc1ccc(Cl)cc1`
result: > 100 µM

query: Hello, please tell me recorded TGI for this one: `COc1ccc(-c2nc(-c3nc4ccc(C(F)(F)F)cc4[nH]3)c3ccccn23)cc1`
result: > 100 µM

Origin of measurements: PubChem BioAssay (NCI)
